# Tested on: A498
# assay summary: Compound was evaluated for in vitro activity against A498 kidney cell lines (Human tumor cells )
# Type: functional, cell-based
pIC50: −log10 of the molar value.
measurement label: pIC50

In the examples that follow, each entry is paired with its recorded pIC50.
CN(Cc1cnc2nc(N)nc(N)c2n1)c1ccc(C(=O)N[C@@H](CCC(=O)O)C(=O)O)cc1 [METHOTREXATE]    < 6.00
Cc1c(CNc2ccc(C(=O)NC(CCCNC(=O)c3ccccc3C(=O)O)C(=O)O)cc2)cnc2nc(N)nc(N)c12 (stereo not drawn)    < 6.00

The molecule Nc1nc(N)c2nc(CNc3ccc(C(=O)NC(CCCNC(=O)c4ccccc4C(=O)O)C(=O)O)cc3)cnc2n1 (stereo not drawn) , when measured on A498, yielded pIC50 of < 6.00
